test.protocol: Pharmacokinetics in dogs after SC and IV administration
recorded.conditions: dog, in vivo, sc, 10 mg/kg
Text: The PK of API-MA was studied in dogs after SC and IV administration.
Where a SMILES comes first, the peptide text is derived from it. [ ]: non-standard residue; d: D form. Arg(Me) = CNC(=N)NCCC[C@H](N)C(=O)O; Hyp = O=C(O)[C@@H]1C[C@@H](O)CN1; azaGly = NNC(=O)O
observable: Cmax (ng/mL)
Answer in ng/mL, number only, no unit symbol.

Field Cmax (entry CNC(=N)NCCC[C@H](NC(=O)[C@H](CC(C)C)NC(=O)NNC(=O)[C@H](Cc1ccccc1)NC(=O)[C@@H](NC(=O)[C@H](CC(N)=O)NC(=O)[C@@H]1C[C@@H](O)CN1C(=O)[C@@H](Cc1ccc(O)cc1)NC(C)=O)[C@@H](C)O)C(=O)N[C@@H](Cc1c[nH]c2ccccc12)C(N)=O [Compound 1] (Ac-[dY][Hyp]NTF[azaGly]L[Arg(Me)]W-NH2) ) reads 8840
